- System: BDF1 mice, P388 leukemia ip, median survival T/C
- assay remarks: NCI In Vivo Anticancer Drug Screen. Data for tumor model P388 Leukemia (intraperitoneal) in B6D2F1 (BDF1) mice
- applied conditions: endpoint: median survival time; dose: 100.0 mg/kg/injection; schedule: Q04DX003 (ip); vehicle: other
Inconclusive results and toxic doses are left out. The calls were made as follows: active = survival T/C of 150% or more; inactive = T/C below 125% in these data.
Your reply should match one of these outcome classes. yes = active, no = inactive

Check out these entries, answers already filled in.
In this assay, the call recorded for COc1ccc(Cc2ccccc2)c(O)c1 was what?
no

Returns: the outcome recorded for Fc1ccc(CSc2ncnc3c2ncn3C2CCCCO2)cc1 (configuration not stated) in this assay.
no

Would you mind telling me which call this test gave CCCCc1ccc2nc(NC(=O)OC)[nH]c2c1 ?
yes

Test call, this molecule: CC(C)OC(CCC#N)c1ccc(Cl)cc1 (configuration not stated)
no

Short answer needed: outcome of this test for c1ccc(CN2CCn3nccc32)cc1 ?
no

---
How was FC(F)(F)c1nc2nc(Cl)c(Cl)nc2[nH]1 classified in this test?
yes

Could you check what this test reported for CCCCCCCCCC(O)CCCCCC (configuration not stated) ?
no

----------
- System: BDF1 mice, P388 leukemia ip, median survival T/C
- assay remarks: NCI In Vivo Anticancer Drug Screen. Data for tumor model P388 Leukemia (intraperitoneal) in B6D2F1 (BDF1) mice
- applied conditions: endpoint: median survival time; dose: 50.0 mg/kg/injection; schedule: Q04DX003 (ip); vehicle: saline with Tween-80; higher = longer survival
Inconclusive results and toxic doses are left out.
Catalogue of T/C readings, one per entry.

Would you please look over these solved cases?
Name the recorded T/C for CCOCc1nc2nc(Cl)c(Cl)nc2[nH]1 .
98 % of control

Find the recorded T/C belonging to NC(=O)c1ncc[nH]c1=O and report it.
100 % of control

Turning now to a further compound:
Quick one: T/C of O=[N+]([O-])c1ccc(Cl)c2c([N+](=O)[O-])cccc12 ?
104 % of control

----------
- System: BDF1 mice, P388 leukemia ip, median survival T/C
- assay remarks: NCI In Vivo Anticancer Drug Screen. Data for tumor model P388 Leukemia (intraperitoneal) in B6D2F1 (BDF1) mice
- applied conditions: endpoint: median survival time; dose: 50.0 mg/kg/injection; schedule: Q04DX003 (ip); vehicle: Klucel (hydroxypropylcellulose) (HPC); higher = longer survival
Inconclusive results and toxic doses are left out.
T/C values for the molecules below.

Endpoint output: T/C of CC(CN(C)C)CN1c2ccccc2Sc2ccccc21 (configuration not stated) . Value?
124 % of control

Which T/C is listed for CN(C)c1ccc(C=O)c(Oc2ccccc2)c1 ?
91 % of control

Returns the measured T/C for the input molecule. Input: Cc1cccc(-c2nc3cc(Cl)ccc3c(=O)o2)c1
95 % of control

# input molecule: CCOC(=O)c1cnc(=S)[nH]c1N ; wanted: its T/C
109 % of control

Request the reported T/C associated with O=C(O)/C=C/c1c[nH]c(=O)[nH]c1=O
101 % of control

Next:
What value of T/C has been recorded for this entry: CC(=O)OCCC/C(=C/c1ccc(/C=C(\CCCOC(C)=O)[N+](=O)[O-])cc1)[N+](=O)[O-]
96 % of control

Quick one: T/C for CC(O)C#CC(C)O (configuration not stated) ?
109 % of control

----------
Readings of T/C for the listed compounds
- Test system: BDF1 mice, P388 leukemia ip, median survival T/C
- assay remarks: NCI In Vivo Anticancer Drug Screen. Data for tumor model P388 Leukemia (intraperitoneal) in B6D2F1 (BDF1) mice
- applied conditions: endpoint: median survival time; dose: 100.0 mg/kg/injection; schedule: Q01DX009 (ip); vehicle: water; higher = longer survival
- Experimental: The antitumor activity of compounds was measured in mice bearing transplantable tumors. Survival or tumor size were measured and the results are expressed as the measurement made in the treated group (T) divided by the measurement made in the vehicle treated control group (C). The tumor model used in this assay is P388 Leukemia (intraperitoneal) in B6D2F1 (BDF1) mice
Inconclusive results and toxic doses are left out.

// returns reported T/C for input CN(C(=N)N)c1ccc(C(=O)Oc2ccc([N+](=O)[O-])cc2)cc1
104 % of control

Could you share which T/C value was measured for CCS(=O)(=O)c1ncc2cnccn12 ?
92 % of control

For C/C(=C\C(=O)O)CC(=O)O , what is its reported T/C?
99 % of control

Query (compound): C#CC1(OCC(O)CO)CCCCC1 (configuration not stated) ; field requested: T/C
103 % of control

Query (compound): CC(O)Cc1c[nH]c(=O)[nH]c1=O (configuration not stated) ; field requested: T/C
92 % of control

Continuing:
Consider the compound Cc1nc(N)cc(=O)[nH]1 and give its measured T/C.
105 % of control

What value of measured T/C is listed for O=C1N2CCOC2=NC1(c1ccccc1)c1ccccc1 ?
94 % of control

----------
- Test system: BDF1 mice, P388 leukemia ip, median survival T/C
- assay remarks: NCI In Vivo Anticancer Drug Screen. Data for tumor model P388 Leukemia (intraperitoneal) in B6D2F1 (BDF1) mice
- applied conditions: endpoint: median survival time; dose: 25.0 mg/kg/injection; schedule: Q01DX009 (ip); vehicle: saline with Tween-80; higher = longer survival
- Procedure: The antitumor activity of compounds was measured in mice bearing transplantable tumors. Survival or tumor size were measured and the results are expressed as the measurement made in the treated group (T) divided by the measurement made in the vehicle treated control group (C). The tumor model used in this assay is P388 Leukemia (intraperitoneal) in B6D2F1 (BDF1) mice
Toxic doses and inconclusive results are not listed.
parameter: T/C

Consider the compound C=CC1CC[N-]CC1.C=CC1CC[N-]CC1.C=CC1CC[N-]CC1.[Cl][Cr]([Cl])[Cl] and give its measured T/C.
109 % of control

Give its T/C value. Item: Clc1ccc(-c2nc3ncccn3n2)cc1
95 % of control

Request the reported T/C associated with O=C(COC1CCCCC1)OC1CCCCC1
100 % of control

Give its T/C value. Item: CCOC(=O)N/N=C\c1cc(OC)c(OC)c(OC)c1
90 % of control

Fill in: T/C of CCCCCCCCCCCCCCCC(=O)N(c1ccc(NC(=O)Nc2ccc(N(C(=O)CCCCCCCCCCCCCCC)C(C)CCCN(CC)CC)cc2)cc1)C(C)CCCN(CC)CC (stereo unspecified) is ___
87 % of control

More entries:
Endpoint output: T/C of Nc1ccc(OCCCc2c(-c3ccccc3)nc(N)[nH]c2=O)cc1 . Value?
100 % of control

Entry c1ccc(CCNCc2ccccc2)cc1 : reported T/C = ?
100 % of control

// returns reported T/C for input CC1(C(Cl)(Cl)Cl)C=CC(=O)C=C1
98 % of control

----------
- System: BDF1 mice, P388 leukemia ip, median survival T/C
- assay remarks: NCI In Vivo Anticancer Drug Screen. Data for tumor model P388 Leukemia (intraperitoneal) in B6D2F1 (BDF1) mice
- applied conditions: endpoint: median survival time; dose: 25.0 mg/kg/injection; schedule: Q01DX009 (ip); vehicle: saline
Toxic doses and inconclusive results are not listed. How the source made its calls: active means survival T/C of 150% or more; inactive means T/C below 125% in these data.
Select the correct class. Options are 1.0 (active), 0.0 (inactive) and nothing else.

The examples below pair each entry with its known result.
I would be grateful if you could indicate the recorded call for CC1=CC(=O)OC2(C1)CC1CCC2CN1C (stereo unspecified) .
0.0

Entry O=c1cc(CO)occ1O.O=c1cc(CO)occ1O.[O]=[V] : call = ?
0.0

Entry Cc1cc(-c2ccccc2)nnc1NCCN1CCOCC1 : call = ?
0.0

Now for another entry.
What did this assay record as the result for NC(=O)CCC(N)C(=O)O.[Cl-].[Cl-].[Cl-].[Cl-].[Pt+2] (stereo unspecified) ?
1.0

----------
- Tested on: BDF1 mice, P388 leukemia ip, median survival T/C
- assay remarks: NCI In Vivo Anticancer Drug Screen. Data for tumor model P388 Leukemia (intraperitoneal) in B6D2F1 (BDF1) mice
- applied conditions: endpoint: median survival time; dose: 400.0 mg/kg/injection; schedule: Q01DX009 (ip); vehicle: saline with Tween-80
Toxic doses and inconclusive results are not listed. The calls were made as follows: active = survival T/C of 150% or more; inactive = T/C below 125% in these data.
API: response.call in 1 (yes) for active, 0 (no) for inactive

Examples with answers:
Field: outcome | Entry: O=C(Cn1ccc(O)cc1=O)c1cccs1
0 (no)

# outcome recorded in this test, key = Cc1ccccc1-c1nc2c(N)nc(N)nc2nc1N
1 (yes)

Each molecule tested received a call. Report the one for CC(=O)N1C(=O)NC(=O)C1(C)c1ccco1 (configuration not stated) .
0 (no)

Outcome? COc1ccc(C=Nc2ccccc2N=Cc2ccc(OC)c(OC)c2)cc1OC
0 (no)

What did this assay record as the result for ClC1=C(Cl)C2(Cl)C(Br)C(Br)C1(Cl)C2(Cl)Cl (configuration not stated) ?
0 (no)

Now consider the entry below.
Please state the recorded outcome for this molecule: COc1ncnc2nc[nH]c12
0 (no)
